- assay-explanation: Inhibition of Yersinia pestis FBA-2
pKi: −log10 of the molar value.
Listing: pKi of selected molecules
measured-property: pKi

# smiles-repr, value-observed
rows = [
    ("O=C(O)C(CC(=O)N(O)CCCCOP(=O)(O)O)C(=O)O", 2.82),
    ("O=C(O)C(CCCCN(O)C(=O)COP(=O)(O)O)C(=O)O", 8.10),
    ("O=C(CO)N(O)CCCCOP(=O)(O)O", 7.10),
]

* * *

- assay-explanation: Inhibition of yeast PGI
- Design: species or system Saccharomyces cerevisiae
pKi: −log10 of the molar value.
measured-property: pKi

# smiles-repr, measured-property, value-observed
rows = [
    ("O=C(NO)[C@@H](O)[C@H](O)[C@H](O)COP(=O)(O)O", "pKi", 6.64),
]

Each recorded value in this set is attributed to ChEMBL document CHEMBL1949545.
